Tested on: pathogenic bacteria causing stem rot in sweet potatoes
test.details: In vitro bactericidal activity, stem rot in sweet potatoes
Type: cell-based, dikia
condition.info: dosage 5 ppm, read-out: inhibitory rate
In this section, each of the molecules is paired with its reported inhibition at 5 ppm.

Solved cases (5 shown):
{"columns": ["molecule", "inhibition at 5 ppm"],
 "data": [
  ["CCOCOC(=O)c1cn(C2CC2)c2cc(Cl)c(F)cc2c1=O [Compound 144]", "≥ 90%"],
  ["CCOCOC(=O)c1cn(C2CC2)c2ccc(F)cc2c1=O [Compound 2]", "≥ 90%"],
  ["CCOCCOC(=O)c1cn(C2CC2)c2cc(OC)c(F)cc2c1=O [Compound 326]", "≥ 90%"],
  ["COCOC(=O)c1cn(C2CC2)c2ccc(F)cc2c1=O [Compound 1]", "≥ 90%"],
  ["COCCOC(=O)c1cn(C2CC2)c2cc(OC(C)(C)C)c(F)cc2c1=O [Compound 287]", "≥ 90%"]
]}

Recorded result, COCCOC(=O)c1cn(C2CC2)c2cc(N(C)C)c(F)cc2c1=O [Compound 414] , inhibition at 5 ppm: ≥ 90%

inhibition at 5 ppm for COCCOC(=O)c1cn(C2CC2)c2cc(OCC(F)(F)F)c(F)cc2c1=O [Compound 292] is ≥ 90%

Reported inhibition at 5 ppm for COCCCCOC(=O)c1cn(C2CC2)c2cc(Cl)c(F)cc2c1=O [Compound 178] was ≥ 90%

inhibition at 5 ppm for CCSc1cc2c(cc1F)c(=O)c(C(=O)OCCO)cn2C1CC1 [Compound 372] is ≥ 90%

Recorded inhibition at 5 ppm (molecule COCCOC(=O)c1cn(C2CC2)c2cc(OC3CC3)c(F)cc2c1=O [Compound 294] ): ≥ 90%

The recorded inhibition at 5 ppm for CCOc1cc2c(cc1F)c(=O)c(C(=O)OCCOC)cn2C1CC1 [Compound 282] is ≥ 90%

For this molecule ( COCCOC(=O)c1cn(C2CC2)c2cc(OCC(F)(F)F)ccc2c1=O [Compound 364] ), measured inhibition at 5 ppm is ≥ 90%

Sample CCNc1cc2c(cc1F)c(=O)c(C(=O)OCCOC)cn2C1CC1 [Compound 408] ; inhibition at 5 ppm observed: ≥ 90%

# molecule CCNc1cc2c(cc1F)c(=O)c(C(=O)OCCO)cn2C1CC1 [Compound 407] ; its inhibition at 5 ppm = ≥ 90%

Lookup result for O=C(OCCOC1CC1)c1cn(C2CC2)c2cc(Cl)c(F)cc2c1=O [Compound 160] ; measured inhibition at 5 ppm: ≥ 90%

inhibition at 5 ppm recorded for this molecule, O=C(OCCO)c1cn(C2CC2)c2ccc(Cl)cc2c1=O [Compound 44] , is ≥ 90%

For record O=C(OCCO)c1cn(C2CC2)c2cc(Cl)c(F)cc2c1=O [Compound 151] the listed inhibition at 5 ppm is ≥ 90%

// field: inhibition at 5 ppm; key: COCCOC(=O)c1cn(C2CC2)c2cc(F)ccc2c1=O [Compound 195] ; value = ≥ 90%

Value of measured inhibition at 5 ppm for the entry COCCOC(=O)c1cn(C2CC2)c2cc(OC)ccc2c1=O [Compound 353] : ≥ 90%

====

The reader will find reported inhibition at 1 ppm values listed item by item below.
System: pathogenic bacteria causing bacterial angular leaf spot in cucumbers
test.details: In vitro bactericidal activity, bacterial angular leaf spot in cucumbers
Assay type: cell-based, pseudomonas
condition.info: dosage 1 ppm, read-out: inhibitory rate

{"columns": ["molecule", "test.system", "result.value"],
 "data": [
  ["O=C(OCCCO)c1cn(C2CC2)c2cc(OCC(F)(F)F)c(F)cc2c1=O [Compound 329]", "pathogenic bacteria causing bacterial angular leaf spot in cucumbers", "≥ 90%"]
]}

Record COCCOC(=O)c1cn(C2CC2)c2cc(SCC(F)(F)F)c(F)cc2c1=O [Compound 390] . Reported inhibition at 1 ppm: ≥ 90%

CCOc1cc2c(cc1F)c(=O)c(C(=O)OCCOC)cn2C1CC1 [Compound 282] has a reported inhibition at 1 ppm of ≥ 90%

The molecule listed as COCCOC(=O)c1cn(C2CC2)c2cc(OCC(F)(F)F)ccc2c1=O [Compound 364] shows inhibition at 1 ppm equal to ≥ 80%

Looking up CCSc1cc2c(cc1F)c(=O)c(C(=O)OCCO)cn2C1CC1 [Compound 372] , I found its inhibition at 1 ppm recorded as ≥ 90%

====

Reported values of pest or weed control at 5 ppm for individual entries
Tested on: soft rot in Chinese cabbages
test.details: whole plant or invertebrate
condition.info: 48 h, read-out: efficacy against soft rot in Chinese cabbages

{"columns": ["compound", "pest or weed control at 5 ppm"],
 "data": [
  ["CCN(CC)c1cc2c(cc1F)c(=O)c(C(=O)OCCOC)cn2C1CC1", "≥ 90%"],
  ["COCCOC(=O)c1cn(C2CC2)c2cc(N(C)C)c(F)cc2c1=O", "≥ 90%"],
  ["CCOc1cc2c(cc1F)c(=O)c(C(=O)OCCOC1CCCC1)cn2C1CC1", "≥ 90%"],
  ["COCCOC(=O)c1cn(C2CC2)c2cc(OC(C)(C)C)c(F)cc2c1=O", "≥ 90%"]
]}

Now consider a different compound.
pest or weed control at 5 ppm for O=C(OCCO)c1cn(C2CC2)c2cc(F)ccc2c1=O is ≥ 80%

====

System: pathogenic bacteria causing black rot in Chinese cabbages
test.details: In vitro bactericidal activity, black rot in Chinese cabbages
Format: cell-based, xanthomonas
condition.info: Xanthomonas, dosage 1 ppm, read-out: inhibitory rate
property.measured: inhibition at 1 ppm

{"columns": ["compound", "result.value"],
 "data": [
  ["CCNc1cc2c(cc1F)c(=O)c(C(=O)OCCO)cn2C1CC1", "≥ 90%"],
  ["CCSc1cc2c(cc1F)c(=O)c(C(=O)OCCO)cn2C1CC1", "≥ 90%"],
  ["COCCOC(=O)c1cn(C2CC2)c2cc(OCC(F)(F)F)ccc2c1=O", "≥ 80%"]
]}

Could you now consider this next compound?
Recorded inhibition at 1 ppm (compound COCCOC(=O)c1cn(C2CC2)c2cc(OC)ccc2c1=O ): ≥ 80%

====

Tested on: pathogenic bacteria causing bacterial angular leaf spot in cucumbers
test.details: In vitro bactericidal activity, bacterial angular leaf spot in cucumbers
Format: cell-based, pseudomonas
condition.info: dosage 1 ppm, read-out: inhibitory rate
Experimental: Under aseptic conditions, equal amounts of NB culture medium were added to test tubes, and fixed amounts of the sample solutions were pipetted into the above test tubes in an ascending order of concentrations, respectively. The mixtures were well mixed and added with equal amounts of a bacterial suspension in log phase. Each step of the procedure was repeated 4 times. […] The OD values were measured when the bacteria were in log phase.
property.measured: inhibition at 1 ppm

// sample CNc1cc2c(cc1F)c(=O)c(C(=O)OCCOC)cn2C1CC1 [Compound 401] , its inhibition at 1 ppm was ≥ 90%

Item: COCCCOC(=O)c1cn(C2CC2)c2cc(Cl)c(F)cc2c1=O [Compound 165] | inhibition at 1 ppm: ≥ 90%

Lab note: O=C(OCCO)c1cn(C2CC2)c2cc(N3CCCCC3)c(F)cc2c1=O [Compound 431] gave inhibition at 1 ppm of ≥ 90%

inhibition at 1 ppm in this record for O=C(OCCO)c1cn(C2CC2)c2cc(OCC(F)(F)F)c(F)cc2c1=O [Compound 275] : ≥ 90%

====

compounds and their reported pest or weed control at 5 ppm
Test system: bacterial blight in rice
test.details: whole plant or invertebrate
condition.info: Oryza sativa, read-out: efficacy against bacterial blight in rice

Below, 2 compounds whose answers are already recorded.
{"columns": ["compound", "pest or weed control at 5 ppm"],
 "data": [
  ["CCOCOC(=O)c1cn(C2CC2)c2cc(OCC)c(F)cc2c1=O", "≥ 80%"],
  ["COCCOC(=O)c1cn(C2CC2)c2cc(OC3CC3)c(F)cc2c1=O", "≥ 90%"]
]}

// pest or weed control at 5 ppm lookup, compound = CCOCCOC(=O)c1cn(C2CC2)c2cc(SCC)c(F)cc2c1=O , result: ≥ 90%

Please fill in: pest or weed control at 5 ppm reported for COCCOC(=O)c1cn(C2CC2)c2ccc(Cl)cc2c1=O = ≥ 80%

====

Tested on: soft rot in Chinese cabbages
test.details: whole plant or invertebrate
condition.info: 48 h, read-out: efficacy against soft rot in Chinese cabbages
property.measured: pest or weed control at 5 ppm

{"columns": ["molecule", "pest or weed control at 5 ppm"],
 "data": [
  ["CCOc1ccc2c(=O)c(C(=O)OCCOC)cn(C3CC3)c2c1 [Compound 342]", "≥ 90%"],
  ["O=C(OCCO)c1cn(C2CC2)c2cc(N3CCOCC3)c(F)cc2c1=O [Compound 425]", "≥ 90%"],
  ["CCOc1cc2c(cc1F)c(=O)c(C(=O)OCCCO)cn2C1CC1 [Compound 309]", "≥ 90%"]
]}

Reported pest or weed control at 5 ppm for COCCOC(=O)c1cn(C2CC2)c2cc(N3CCOCC3)c(F)cc2c1=O [Compound 426] was ≥ 90%

# pest or weed control at 5 ppm of O=C(OCCOC1CC1)c1cn(C2CC2)c2cc(Cl)c(F)cc2c1=O [Compound 160] = ≥ 80%

Item: CCSc1cc2c(cc1F)c(=O)c(C(=O)OCCO)cn2C1CC1 [Compound 372] | pest or weed control at 5 ppm: ≥ 90%

Form field pest or weed control at 5 ppm, entry COCCOC(=O)c1cn(C2CC2)c2ccc(F)cc2c1=O [Compound 10] : ≥ 80%

Notebook: COc1cc2c(cc1F)c(=O)c(C(=O)OCCO)cn2C1CC1 [Compound 264] , pest or weed control at 5 ppm read as ≥ 90%

All values here come from patent US20250313533A1.
